Property: growth; scope: individual compounds
- System: A549/ATCC NSCLC
- protocol.notes: NCI-60 one-dose screen, 48 h (100 = growth as untreated, 0 = no growth, -100 = all killed)
- condition.details: 10 µM unless noted
About 83,000 compounds went through this panel and 20% of them were active in at least one assay; those are over-represented in the sample as a whole.
quantity.name: growth (%)

> print(dat)
                                    compound  quantity.name  numeric.readout
 1                N#CC(C#N)N=Nc1cc(Cl)ccc1Cl         growth             98.4
 2                      Nc1nc(N)c2[nH]cnc2n1         growth             80.2
 3             O=C(Cc1ccccc1)c1ccc(O)c(Cl)c1         growth             96.4
 4  O=c1n(CC2CO2)c(=O)n(CC2CO2)c(=O)n1CC1CO1 (centres undefined)         growth             44.3
 5  OCC1OC(O)C(O)C(O)C1O (centres undefined)         growth              108
 6              CC(C)NC(=O)N/C=C(\C#N)C(N)=O         growth              111
 7  CC[C@H](CC[C@@H](C)[C@H]1CC[C@H]2[C@@H]3CC=C4C[C@@H](O)CC[C@]4(C)[C@H]3CC[C@]12C)C(C)C         growth              102
 8  CC(=O)OC(C)C(=O)NCC(C)O (centres undefined)         growth              108
 9                Fc1ccc([I+]c2ccc(F)cc2)cc1         growth             80.9
10          CCN(CCNS(C)(=O)=O)c1ccc(N)c(C)c1         growth              109
11                  CCCCNc1ccc(Nc2ccccc2)cc1         growth             70.1
12  CN(C)CC1CCCCCC(CN(C)C)C1=O (centres undefined)         growth              106
13  CCCCCCCCCCCCCCCc1ccc(N)c(OC2OC(CO)C(O)C(O)C2O)c1 (centres undefined)         growth               86
14              Cc1ccc(S(=O)(=O)c2ccccc2)cc1         growth             41.7

###

- Test system: HCC-2998 colon
- protocol.notes: NCI-60 one-dose screen, 48 h
- condition.details: 10 µM unless noted
This is part of a sample that, as a whole, favours compounds with a hit. Of some 83,000 tested, about 20% had one in any assay. Activity calls are given as the source filed them. The calls were made as follows: active = growth percent below 10; inactive = the rest.
Possible outcomes: True = active, False = inactive

> print(dat)
                                    molecule     system.name  label.value
 1              CC(C)NC(=O)N/C=C(\C#N)C(N)=O  HCC-2998 colon        False
 2                ClCCOCCOc1ccc(C2CCCCC2)cc1  HCC-2998 colon        False
 3  CC1CCC2(OC1)OC1CC3C4CC=C5CC(O)CCC5(C)C4CCC3(C)C1C2C (centres undefined)  HCC-2998 colon        False
 4  NC(=O)NCCCC(N)C(=O)O (centres undefined)  HCC-2998 colon        False
 5  Nc1ncnc2c1ncn2C1OC(COP(=O)(O)O)C(O)C1O (centres undefined)  HCC-2998 colon        False
 6                  C/C(=C\c1ccccc1)c1ccccn1  HCC-2998 colon        False
 7                                O=C(O)CCCl  HCC-2998 colon        False
 8   NN1CCOC(c2ccccc2)C1 (centres undefined)  HCC-2998 colon        False
 9  COc1cc(C(O)C2C(=O)OCC2C2(c3ccc4c(c3)OCO4)SCCCS2)cc(OC)c1OC (centres undefined)  HCC-2998 colon        False
10                       C#CCOC(=O)Nc1ccccc1  HCC-2998 colon        False
11                             OCCN1CCCCCCC1  HCC-2998 colon        False
12         Cc1cc(-c2cc(C)c(O)c(C)c2)cc(C)c1O  HCC-2998 colon        False
13                            CC(C)(O)C(=O)O  HCC-2998 colon        False
14               CC(=O)Nc1ccc(S(N)(=O)=O)cc1  HCC-2998 colon        False
15  OCC1OC(O)C(O)C(O)C1O (centres undefined)  HCC-2998 colon        False
16  Cc1cc(-c2ccc(N=Nc3ccc4c(S(=O)(=O)O)cc(S(=O)(=O)O)c(N)c4c3O)c(C)c2)ccc1N=Nc1ccc2c(S(=O)(=O)O)cc(S(=O)(=O)O)c(N)c2c1O  HCC-2998 colon        False
17              Cc1ccc(S(=O)(=O)c2ccccc2)cc1  HCC-2998 colon        False
18               CCCCOC(=O)/C=C\C(=O)NC(N)=O  HCC-2998 colon        False
19                                        Cl  HCC-2998 colon        False
20                Brc1ccc(SSc2ccc(Br)cc2)cc1  HCC-2998 colon        False
21             O=C(Cc1ccccc1)c1ccc(O)c(Cl)c1  HCC-2998 colon        False
22  COc1ccc2cc1Oc1ccc(cc1)C[C@H]1c3cc(c(OC)cc3CCN1C)Oc1c(OC)c(OC)cc3c1[C@H](C2)N(C)CC3  HCC-2998 colon         True
23                          CCc1cc(C)cc(O)c1  HCC-2998 colon        False
24                  c1ccc(-c2nc3ccccc3s2)cc1  HCC-2998 colon        False
25  O=[N+]([O-])c1cccc(SSc2cccc([N+](=O)[O-])c2)c1  HCC-2998 colon        False
26                 Oc1ccc(Cc2ccccc2Cl)c(O)c1  HCC-2998 colon        False
27  CC1CCC(C(C)C)C(NNC(N)=O)C1 (centres undefined)  HCC-2998 colon        False
28                Fc1ccc([I+]c2ccc(F)cc2)cc1  HCC-2998 colon        False
29        CCCCOc1ccc(Nc2cc(Cl)ccc2C(=O)O)cn1  HCC-2998 colon        False

###

- Test system: TK-10 renal
- protocol.notes: NCI-60 one-dose screen, 48 h (100 = growth as untreated, 0 = no growth, -100 = all killed)
- condition.details: 10 µM unless noted
About 83,000 compounds went through this panel and 20% of them were active in at least one assay; those are over-represented in the sample as a whole. Where a SMILES comes first, the peptide text is derived from it.
Property: growth; scope: individual compounds
quantity.name: growth (%)

> print(dat)
                                    compound  system.name  quantity.name  numeric.readout
 1  CC(=O)OC(C)C(=O)NCC(C)O (stereo unspecified)  TK-10 renal         growth              113
 2  COc1ccc(N/C=C/C2=[N+](C)c3ccccc3C2(C)C)c(OC)c1  TK-10 renal         growth              106
 3                             OCCN1CCCCCCC1  TK-10 renal         growth             99.9
 4         Cc1cc(-c2cc(C)c(O)c(C)c2)cc(C)c1O  TK-10 renal         growth             90.5
 5  NN1CCOC(c2ccccc2)C1 (stereo unspecified)  TK-10 renal         growth              122
 6  CC1=C/C(O)CC(=O)Cc2nc(co2)C(=O)N2CCC=C2C(=O)OC(C(C)C)C(C)/C=C\C(=O)NC/C=C\1 (stereo unspecified)  TK-10 renal         growth              127
 7                          Nc1cc(N)c(N)cc1N  TK-10 renal         growth              101
 8  Cc1cc(-c2ccc(N=Nc3ccc4c(S(=O)(=O)O)cc(S(=O)(=O)O)c(N)c4c3O)c(C)c2)ccc1N=Nc1ccc2c(S(=O)(=O)O)cc(S(=O)(=O)O)c(N)c2c1O  TK-10 renal         growth              112
 9                            CC(C)(O)C(=O)O  TK-10 renal         growth             98.9
10                  C/C(=C\c1ccccc1)c1ccccn1  TK-10 renal         growth              162
11  CC1CCC(C(C)C)C(NNC(N)=O)C1 (stereo unspecified)  TK-10 renal         growth              105
12                Fc1ccc([I+]c2ccc(F)cc2)cc1  TK-10 renal         growth             71.2
13  CC1CCC2(OC1)OC1CC3C4CC=C5CC(O)CCC5(C)C4CCC3(C)C1C2C (stereo unspecified)  TK-10 renal         growth              101
14  NC(=O)NCCCC(N)C(=O)O (stereo unspecified)  TK-10 renal         growth             99.3
15  NC(Cc1ccccc1)C(=O)NC(Cc1ccccc1)C(=O)O (stereo not drawn) (H-Phe-Phe-OH; configuration not given here)  TK-10 renal         growth              105
16                           CC1(C)COC(=S)N1  TK-10 renal         growth              101
17                O=C(/C=C/c1ccccc1)c1ccccc1  TK-10 renal         growth              114
18              Cc1ccc(S(=O)(=O)c2ccccc2)cc1  TK-10 renal         growth             51.6
19                ClCCOCCOc1ccc(C2CCCCC2)cc1  TK-10 renal         growth              108
20                Brc1ccc(SSc2ccc(Br)cc2)cc1  TK-10 renal         growth             97.1
21  O=[N+]([O-])c1cccc(SSc2cccc([N+](=O)[O-])c2)c1  TK-10 renal         growth              109
22                 Oc1ccc(Cc2ccccc2Cl)c(O)c1  TK-10 renal         growth              103
23               COc1ccc(Nc2ccc3ccccc3c2)cc1  TK-10 renal         growth             77.2
24                               O=CN1CCCCC1  TK-10 renal         growth              125
25                  CCOC(=O)c1c(C)cc(=O)oc1C  TK-10 renal         growth              121
26                        CCCCCCCCCCNC(=O)CI  TK-10 renal         growth             15.5
